Target: KDM5B (PLU-1) (Homo sapiens, UniProt Q9UGL1)
Sequence (Q9UGL1 1-809): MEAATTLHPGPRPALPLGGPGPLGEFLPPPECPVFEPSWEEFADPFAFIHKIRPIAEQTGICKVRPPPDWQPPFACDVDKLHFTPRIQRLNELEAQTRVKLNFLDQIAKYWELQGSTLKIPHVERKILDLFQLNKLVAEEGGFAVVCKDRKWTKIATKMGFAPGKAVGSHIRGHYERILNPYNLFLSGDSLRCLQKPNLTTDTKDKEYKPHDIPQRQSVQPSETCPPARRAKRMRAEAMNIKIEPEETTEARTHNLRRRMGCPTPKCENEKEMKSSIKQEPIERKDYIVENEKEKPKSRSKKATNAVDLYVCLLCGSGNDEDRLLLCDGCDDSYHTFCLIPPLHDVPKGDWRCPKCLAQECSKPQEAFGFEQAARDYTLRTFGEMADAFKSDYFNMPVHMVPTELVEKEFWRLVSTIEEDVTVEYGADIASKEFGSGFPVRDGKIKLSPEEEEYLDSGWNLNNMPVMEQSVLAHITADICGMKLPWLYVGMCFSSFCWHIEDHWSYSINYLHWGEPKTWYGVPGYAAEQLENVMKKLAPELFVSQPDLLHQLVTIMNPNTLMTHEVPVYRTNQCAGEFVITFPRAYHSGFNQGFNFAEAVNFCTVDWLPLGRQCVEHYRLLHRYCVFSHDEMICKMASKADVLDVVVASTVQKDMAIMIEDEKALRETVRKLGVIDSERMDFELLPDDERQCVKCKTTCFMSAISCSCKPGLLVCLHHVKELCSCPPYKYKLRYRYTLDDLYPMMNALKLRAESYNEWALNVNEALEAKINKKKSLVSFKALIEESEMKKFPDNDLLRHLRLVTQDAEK
Assay: Histone lysine demethylase AlphaLISA assay, KDM5B
Type: biochemical
Details: read-out: KDM5B HDME Inhibition IC50
Please respond with reported IC50 for every item in the list.

Challenge: Can you share its IC50? I mean this compound: CCN(CCN(C)C)C(=O)CNCc1cc(/C=N/CC(CO)C2CCCCC2)ccn1 (centres unmarked) [Compound 81]
Response given: < 250 nM

Challenge: Entry CN(C)CC1CCC(CNCc2cc(C=O)ccn2)CC1 (centres unmarked) [Compound 97] : reported IC50 = ?
Response given: 250 to 2500 nM

Challenge: What does the record list as IC50 for C(=N/C1CC1)/c1ccnc(CNCCCN2CCCC2)c1 [Compound 42] ?
Response given: < 250 nM

Challenge: Given the compound CN1CCCC1CCNCc1cc(/C=N/C2CC2)ccn1 (centres unmarked) [Compound 40] , what is its reported IC50?
Response given: < 250 nM

Hey, can you go through the list below and give me IC50 for every item?
1. CCN(CC1CCCN1C)C(=O)CNCc1cc(/C=N/CCO)ccn1 (centres unmarked) [Compound 79]
2. CCSCCNCc1cc(/C=N/C2CC2)ccn1 [Compound 39]
3. CN(CCCn1cccn1)C(=O)CNCc1cc(/C=N/C2CC2)ccn1 [Compound 52]
4. O=Cc1ccnc(CNCC(=O)NC2CCN(Cc3ccccc3)C2)c1 (centres unmarked) [Compound 113]
5. COc1ccccc1CN1CCC(NC(=O)CNCc2cc(CNC3CC3)ccn2)CC1 [Compound 20]
6. CN(C)CCCCNCc1cc(/C=N\C2CC2)ccn1 [Compound 45]

Response given:
1. < 250 nM
2. 250 to 2500 nM
3. < 250 nM
4. < 250 nM
5. < 250 nM
6. 250 to 2500 nM

Would you mind giving IC50 for every compound in the list below?
1. CN(CC(=O)N1CCCCC1)Cc1cc(C=O)ccn1 [Compound 120]
2. CN(C)C(=O)CNCc1cc(/C=N\C2CC2)ccn1 [Compound 33]
3. CN(C)C/C=C\CNCc1cc(C=O)ccn1 [Compound 99]
4. COC(=O)CNCc1cc(/C=N/C2CC2)ccn1 [Compound 59]
5. CCN(CC)CCCCNCc1cc(CNC(=O)C(=O)OC(C)(C)C)ccn1 [Compound 28]
6. CCN(CC(C)(C)N(C)C)C(=O)CNCc1cc(C=O)ccn1 [Compound 118]
7. CCN(CC)CCCCNCc1cc(/C=N/CC2(CO)CC2)ccn1 [Compound 77]

Response given:
1: > 2500 nM; 2: < 250 nM; 3: < 250 nM; 4: < 250 nM; 5: 250 to 2500 nM; 6: < 250 nM; 7: 250 to 2500 nM
